This collection of values is drawn from patent US9243001B2.

# tested_target: wild-type EZH2 (PRC2 enzyme) (Homo sapiens)
# Sequence (Q15910 1-751 isoform Q15910-2): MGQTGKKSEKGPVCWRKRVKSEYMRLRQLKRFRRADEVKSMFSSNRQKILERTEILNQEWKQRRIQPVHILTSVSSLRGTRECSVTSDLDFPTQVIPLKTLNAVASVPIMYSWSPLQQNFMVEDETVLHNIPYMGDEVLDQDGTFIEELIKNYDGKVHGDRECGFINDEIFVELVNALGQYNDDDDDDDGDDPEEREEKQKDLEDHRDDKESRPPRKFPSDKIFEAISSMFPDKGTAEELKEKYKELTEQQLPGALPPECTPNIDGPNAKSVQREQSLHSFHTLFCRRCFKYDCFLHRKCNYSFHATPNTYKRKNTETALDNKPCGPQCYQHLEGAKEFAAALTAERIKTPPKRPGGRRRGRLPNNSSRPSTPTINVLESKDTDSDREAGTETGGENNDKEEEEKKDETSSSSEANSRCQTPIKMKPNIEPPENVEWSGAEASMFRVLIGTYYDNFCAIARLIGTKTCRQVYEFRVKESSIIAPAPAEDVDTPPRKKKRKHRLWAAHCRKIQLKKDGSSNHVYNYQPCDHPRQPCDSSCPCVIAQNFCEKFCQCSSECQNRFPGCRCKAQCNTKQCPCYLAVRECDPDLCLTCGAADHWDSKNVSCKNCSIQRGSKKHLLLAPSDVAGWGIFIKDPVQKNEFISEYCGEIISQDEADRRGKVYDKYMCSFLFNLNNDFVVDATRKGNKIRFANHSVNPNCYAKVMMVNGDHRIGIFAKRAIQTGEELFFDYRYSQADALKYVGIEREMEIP
# Sequence (O75530 whole entry partner): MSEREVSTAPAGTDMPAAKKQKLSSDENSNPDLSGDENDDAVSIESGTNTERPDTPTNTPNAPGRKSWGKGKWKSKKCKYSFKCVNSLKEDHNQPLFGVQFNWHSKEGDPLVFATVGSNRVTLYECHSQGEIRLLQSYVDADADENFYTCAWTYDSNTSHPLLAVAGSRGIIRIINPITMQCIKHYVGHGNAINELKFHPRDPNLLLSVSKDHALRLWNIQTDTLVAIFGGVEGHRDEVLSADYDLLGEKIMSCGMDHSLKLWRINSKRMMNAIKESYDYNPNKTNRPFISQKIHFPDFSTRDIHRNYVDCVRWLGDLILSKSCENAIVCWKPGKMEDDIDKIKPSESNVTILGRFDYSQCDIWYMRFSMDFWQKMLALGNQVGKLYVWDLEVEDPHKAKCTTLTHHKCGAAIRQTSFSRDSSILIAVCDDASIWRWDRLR
# Sequence (Q15022 whole entry partner): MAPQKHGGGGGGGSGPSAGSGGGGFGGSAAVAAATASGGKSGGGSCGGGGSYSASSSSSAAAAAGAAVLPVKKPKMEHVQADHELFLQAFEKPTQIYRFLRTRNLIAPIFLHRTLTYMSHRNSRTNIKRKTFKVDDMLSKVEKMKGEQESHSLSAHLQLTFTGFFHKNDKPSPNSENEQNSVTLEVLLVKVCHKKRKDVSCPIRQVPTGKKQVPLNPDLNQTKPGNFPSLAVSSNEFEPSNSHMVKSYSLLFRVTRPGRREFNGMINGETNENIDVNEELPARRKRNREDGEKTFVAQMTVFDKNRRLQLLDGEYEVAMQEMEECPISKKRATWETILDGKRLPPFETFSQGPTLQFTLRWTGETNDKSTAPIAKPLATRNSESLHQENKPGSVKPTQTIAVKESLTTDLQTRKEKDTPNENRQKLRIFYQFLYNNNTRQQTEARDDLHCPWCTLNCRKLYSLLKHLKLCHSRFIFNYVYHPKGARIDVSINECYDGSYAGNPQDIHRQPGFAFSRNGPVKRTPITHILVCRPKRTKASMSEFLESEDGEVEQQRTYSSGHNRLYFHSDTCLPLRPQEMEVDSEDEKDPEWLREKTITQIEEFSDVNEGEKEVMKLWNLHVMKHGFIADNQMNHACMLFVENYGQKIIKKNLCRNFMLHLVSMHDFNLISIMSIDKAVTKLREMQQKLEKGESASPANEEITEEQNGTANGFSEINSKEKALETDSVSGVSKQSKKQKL
# Sequence (Q09028 whole entry partner): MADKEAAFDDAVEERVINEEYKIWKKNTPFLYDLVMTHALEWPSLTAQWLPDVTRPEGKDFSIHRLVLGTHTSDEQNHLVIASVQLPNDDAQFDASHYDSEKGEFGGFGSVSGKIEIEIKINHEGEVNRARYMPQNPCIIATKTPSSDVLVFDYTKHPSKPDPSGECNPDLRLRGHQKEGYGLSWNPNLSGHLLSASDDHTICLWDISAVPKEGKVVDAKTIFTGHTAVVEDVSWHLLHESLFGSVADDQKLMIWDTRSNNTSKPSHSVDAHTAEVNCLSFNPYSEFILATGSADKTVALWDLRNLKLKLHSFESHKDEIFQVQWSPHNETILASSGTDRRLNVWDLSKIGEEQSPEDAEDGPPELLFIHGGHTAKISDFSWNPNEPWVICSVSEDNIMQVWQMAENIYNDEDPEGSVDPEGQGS
pIC50: −log10 of the molar value.
This listing pairs compounds with measured pIC50.

Answered examples (6):
CCN(c1cc(Cl)cc(C(=O)NCc2cccc3ccnn23)c1C)[C@H]1CC[C@H](N(C)C)CC1 | < 5.00
CCN(c1cc(Cl)cc(C(=O)NCc2cccc3cn(C)nc23)c1C)[C@H]1CC[C@H](N(C)C)CC1 | < 5.00
CCN(c1cc(Cl)cc(C(=O)NCc2nc3ccccc3[nH]2)c1C)[C@H]1CC[C@H](N(C)C)CC1 | < 5.00
CCN(c1cc(Cl)cc(C(=O)NCc2ccc(C)c3cn(C)nc23)c1C)C1CCC(N(C)C)CC1 (stereo not shown) | 5.29
CCN(c1cc(Cl)cc(C(=O)NCCc2nccs2)c1C)[C@H]1CC[C@H](N(C)C)CC1 | < 4.30
CCN(c1cc(Cl)cc(C(=O)NCc2ncc(C)[nH]2)c1C)[C@H]1CC[C@H](N(C)C)CC1 | < 5.00

The compound CCN(c1cc(Cl)cc(C(=O)NCc2cccn3ccnc23)c1C)[C@H]1CC[C@H](N(C)C)CC1 , tested on wild-type EZH2 (PRC2 enzyme) (Homo sapiens), showed pIC50 of 5.66
